Measured values drawn from paper PMC9482650 for this set.

target desc: DLG2_2, Q15700
Sequence (Q15700 189-283): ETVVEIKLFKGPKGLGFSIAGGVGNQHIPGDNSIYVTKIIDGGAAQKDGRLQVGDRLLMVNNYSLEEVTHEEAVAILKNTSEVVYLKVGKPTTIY
assay comment: holdup assay
Set-up: key: below the threshold = too weak to quantify, mostly under pKd 3.1 to 4
experimental context: plain residues with an end cap or a label only (N-terminal biotin on a linker: ado-ado)
measured quantity: pKd

| binder | reading |
| --- | --- |
| TASPAKETSF [SLC2A7, Q6PXP3] | 4.06 |
| TPPAAKKSRI [BAZ1A, Q9NRL2] | 3.65 |
| MLSKQSESAI [FLVCR1, Q9Y5Y0] | below the threshold |
| YNNCLEILRV [DCAF7, P61962] | below the threshold |
| VKPQVSESKL [ACOT8, O14734] | below the threshold |
| GQEEQVTTRL [TRPC5, Q9UL62] | below the threshold |
| SKSNFGSEPL [KIF17, Q9P2E2] | below the threshold |
| PRAEAEDSFL [PDGFRB, P09619] | below the threshold |
| PAPSSGKDYV [CLDN1, O95832] | below the threshold |
| HLRARKSEWV [GJD4, Q96KN9] | 3.62 |

Parameters: items (list). Returns: pKd for each item.
1. TSSMRGMDAV [RSRC2, Q7L4I2]
2. EALLQMESVA [CAVIN3, Q969G5]
3. ETQVTAETVI [TMEM225B, P0DP42]
4. VNKSKLLTDV [KCNA1, Q09470]
5. IPLDGETEEL [MYOZ1, Q9NP98]
6. LPHPHSTTRV [NLGN2, Q8NFZ4]

OUT:
["below the threshold", "below the threshold", 4.07, 4.29, "below the threshold", 3.59]

Parameters: items (list). Returns: pKd for each item.
1. KSGKQTMLVV [TRIM29, Q14134]
2. CLREWCDAFL [BANF1, O75531]

OUT:
3.48
below the threshold
